- TARGET DESC: Voltage-gated inwardly rectifying potassium channel KCNH2 (Homo sapiens)
- Sequence (Q12809 whole entry): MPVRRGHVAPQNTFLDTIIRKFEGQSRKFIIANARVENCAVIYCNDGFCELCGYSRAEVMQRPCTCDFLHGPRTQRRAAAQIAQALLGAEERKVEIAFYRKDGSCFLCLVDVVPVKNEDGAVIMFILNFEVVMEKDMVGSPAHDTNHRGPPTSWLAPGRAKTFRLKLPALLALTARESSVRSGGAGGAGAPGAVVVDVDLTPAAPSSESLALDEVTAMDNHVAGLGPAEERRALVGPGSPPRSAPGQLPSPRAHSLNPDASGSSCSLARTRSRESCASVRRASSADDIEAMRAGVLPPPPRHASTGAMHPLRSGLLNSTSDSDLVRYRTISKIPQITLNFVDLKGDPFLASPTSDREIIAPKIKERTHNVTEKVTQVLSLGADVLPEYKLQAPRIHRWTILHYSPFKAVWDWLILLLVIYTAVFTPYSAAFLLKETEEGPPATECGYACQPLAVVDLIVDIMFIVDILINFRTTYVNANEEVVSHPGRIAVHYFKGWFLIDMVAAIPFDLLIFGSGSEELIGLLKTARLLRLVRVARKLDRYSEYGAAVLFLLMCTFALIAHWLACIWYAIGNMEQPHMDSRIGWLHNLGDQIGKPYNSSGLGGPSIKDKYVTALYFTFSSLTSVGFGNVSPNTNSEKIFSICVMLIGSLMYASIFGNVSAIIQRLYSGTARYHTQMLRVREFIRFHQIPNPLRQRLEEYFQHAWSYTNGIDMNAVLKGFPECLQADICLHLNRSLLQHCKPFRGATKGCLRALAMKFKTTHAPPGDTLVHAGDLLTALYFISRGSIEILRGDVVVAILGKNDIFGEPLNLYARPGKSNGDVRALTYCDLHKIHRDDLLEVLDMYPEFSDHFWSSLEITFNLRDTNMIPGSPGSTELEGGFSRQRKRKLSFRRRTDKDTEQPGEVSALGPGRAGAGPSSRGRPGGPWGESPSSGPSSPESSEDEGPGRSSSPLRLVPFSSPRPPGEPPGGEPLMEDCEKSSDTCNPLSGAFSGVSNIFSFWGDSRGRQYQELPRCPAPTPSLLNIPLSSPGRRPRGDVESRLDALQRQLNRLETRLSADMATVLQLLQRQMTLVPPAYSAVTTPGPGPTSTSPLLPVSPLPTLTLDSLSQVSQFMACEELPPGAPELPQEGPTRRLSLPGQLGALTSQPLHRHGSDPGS
pIC50: −log10 of the molar value.
ENDPOINT LABEL: pIC50

Cc1ncc(-c2nc3c(-c4ccc5c(c4)[C@@]4(CCCN4C(=O)C4CC4)C(=O)N5C)ncnc3n2C)cn1 ... < 4.52

###

- PROCEDURE TEXT: Intrinsic clearance in Beagle dog at 0.5 mg/kg, iv or 1 mg/kg, po
- Type: ADME, organism-based, Canis lupus familiaris
- COND: in vivo
Entries and their log10 CL values follow.
ENDPOINT LABEL: log10 CL (log10 of the value in mL/min/kg)

Cc1ncc(-c2nc3c(-c4ccc5c(c4)[C@@]4(CCCN4C(=O)C4CC4)C(=O)N5)ncnc3n2C)cn1 ... 1.43
Cc1ncc(-c2nc3c(-c4cnc5c(c4)[C@](C)(N[C@H]4CCOC4)C(=O)N5)ncnc3n2C)cn1 ... 0.48
CCn1c(-c2cnc(C)nc2)nc2c(-c3cnc4c(c3)[C@](C)(N3CC(C)(OC)C3)C(=O)N4)ncnc21 ... 1.20
Cc1ncc(-c2nc3c(-c4ccc5c(c4)[C@@]4(CCCN4C(=O)C4CC4)C(=O)N5C)ncnc3n2C)cn1 ... 1.15
CCn1c(-c2cnc(C)nc2)nc2c(-c3cnc4c(c3)[C@](C)(NCC(C)(C)F)C(=O)N4)ncnc21 ... 0.78
CCn1c(-c2cnc(C)nc2)nc2c(-c3ccc4c(c3)[C@](C)(CC3CCO3)C(=O)N4)ncnc21 (stereo partly specified) ... 2.40

###

- PROCEDURE TEXT: Unbound volume of distribution in Beagle dog at 0.5 mg/kg, iv or 1 mg/kg, po
- Assay type: ADME, organism-based, Canis lupus familiaris
- COND: in vivo
Entries and their Vdu values follow.
ENDPOINT LABEL: Vdu (L/kg)

CCn1c(-c2cnc(C)nc2)nc2c(-c3ccc4c(c3)[C@@]3(CCCN3C(=O)C3CC3)C(=O)N4C)ncnc21 ... 1
CCn1c(-c2cnc(C)nc2)nc2c(-c3cnc4c(c3)[C@](C)(N[C@H]3CCOC3)C(=O)N4)ncnc21 ... 1.6
CCn1c(-c2cnc(C)nc2)nc2c(-c3ccc4c(c3)[C@](C)(N[C@H]3CCOC3)C(=O)N4)ncnc21 ... 6.5
CCn1c(-c2cnc(C)nc2)nc2c(-c3cnc4c(c3)[C@](C)(NCC(C)(C)F)C(=O)N4)ncnc21 ... 3.3

###

Entries and their solubility values follow.
- PROCEDURE TEXT: Solubility of the compound at pH 7
- Assay type: physicochemical
- COND: buffer
ENDPOINT LABEL: solubility (µM)

Cc1ncc(-c2nc3c(-c4ccc5c(c4)[C@@]4(CCCN4C(=O)C4CC4)C(=O)N5)ncnc3n2C)cn1 ... 130
CCn1c(-c2cnc(C)nc2)nc2c(-c3ccc4c(c3)[C@](C)(NCC(C)(C)F)C(=O)N4)ncnc21 ... 130
CCn1c(-c2cnc(C)nc2)nc2c(-c3cnc4c(c3)[C@](C)(NC3CCC3)C(=O)N4)ncnc21 ... 140
CCn1c(-c2cnc(C)nc2)nc2c(-c3ccc4c(c3)[C@@]3(CCCN3C(=O)C3CC3)C(=O)N4)ncnc21 ... 34
CCn1c(-c2cnc(C)nc2)nc2c(-c3ccc4c(c3)[C@](C)(NC3CCC3)C(=O)N4)ncnc21 ... 130
Cc1ncc(-c2nc3c(-c4cnc5c(c4)[C@](C)(N[C@H]4CCOC4)C(=O)N5)ncnc3n2C)cn1 ... 140
CCn1c(-c2cnc(C)nc2)nc2c(-c3ccc4c(c3)[C@@]3(CCCN3C(C)C)C(=O)N4)ncnc21 ... 56
Cc1ncc(-c2nc3c(-c4ccc5c(c4)[C@@]4(CCCN4C(=O)C4CC4)C(=O)N5C)ncnc3n2C)cn1 ... 140

###

- PROCEDURE TEXT: Clearance in Beagle dog at 0.5 mg/kg, iv or 1 mg/kg, po
- Format: ADME, organism-based, Canis lupus familiaris
- COND: in vivo
ENDPOINT LABEL: clearance (mL/min/kg)

CCn1c(-c2cnc(C)nc2)nc2c(-c3cnc4c(c3)[C@](C)(N3CC(C)(OC)C3)C(=O)N4)ncnc21 ... 7.4
Cc1ncc(-c2nc3c(-c4cnc5c(c4)[C@](C)(N[C@H]4CCOC4)C(=O)N5)ncnc3n2C)cn1 ... 1.9
CCn1c(-c2cnc(C)nc2)nc2c(-c3ccc4c(c3)[C@](C)(CC3CCO3)C(=O)N4)ncnc21 (some centres undefined) ... 24
Cc1ncc(-c2nc3c(-c4ccc5c(c4)[C@@]4(CCCN4C(=O)C4CC4)C(=O)N5C)ncnc3n2C)cn1 ... 6.1

###

- PROCEDURE TEXT: Volume of distribution in Beagle dog at 0.5 mg/kg, iv or 1 mg/kg, po
- Format: ADME, organism-based, Canis lupus familiaris
- COND: in vivo
Entries and their Vd values follow.
ENDPOINT LABEL: Vd (L/kg)

CCn1c(-c2cnc(C)nc2)nc2c(-c3ccc4c(c3)[C@](C)(N3CC(C)(OC)C3)C(=O)N4)ncnc21 ... 2.8
CCn1c(-c2cnc(C)nc2)nc2c(-c3ccc4c(c3)[C@@]3(CCCN3C(=O)C3CC3)C(=O)N4)ncnc21 ... 1.5
CCn1c(-c2cnc(C)nc2)nc2c(-c3ccc4c(c3)[C@@]3(CCCN3C(C)C)C(=O)N4)ncnc21 ... 2.2
CCn1c(-c2cnc(C)nc2)nc2c(-c3ccc4c(c3)[C@](C)(N[C@H]3CCOC3)C(=O)N4)ncnc21 ... 4.2
CCn1c(-c2cnc(C)nc2)nc2c(-c3cnc4c(c3)[C@](C)(N3CC(C)(OC)C3)C(=O)N4)ncnc21 ... 1.3
CCn1c(-c2cnc(C)nc2)nc2c(-c3ccc4c(c3)[C@](C)(CC3CCO3)C(=O)N4)ncnc21 (some centres undefined) ... 1.7
CCn1c(-c2cnc(C)nc2)nc2c(-c3cnc4c(c3)[C@](C)(N[C@H]3CCOC3)C(=O)N4)ncnc21 ... 1.2
Cc1ncc(-c2nc3c(-c4ccc5c(c4)[C@@]4(CCCN4C(=O)C4CC4)C(=O)N5C)ncnc3n2C)cn1 ... 0.8
CCn1c(-c2cnc(C)nc2)nc2c(-c3ccc4c(c3)[C@@]3(CCCN3C(=O)C3CC3)C(=O)N4C)ncnc21 ... 0.5
Cc1ncc(-c2nc3c(-c4cnc5c(c4)[C@](C)(N[C@H]4CCOC4)C(=O)N5)ncnc3n2C)cn1 ... 0.2
CCn1c(-c2cnc(C)nc2)nc2c(-c3ccc4c(c3)[C@](C)(NCC(C)(F)F)C(=O)N4)ncnc21 ... 1.7
CCn1c(-c2cnc(C)nc2)nc2c(-c3ccc4c(c3)[C@](C)(NCC(C)(C)F)C(=O)N4)ncnc21 ... 2.9
CCn1c(-c2cnc(C)nc2)nc2c(-c3cnc4c(c3)[C@](C)(NCC(C)(C)F)C(=O)N4)ncnc21 ... 1.4
Cc1ncc(-c2nc3c(-c4ccc5c(c4)[C@@]4(CCCN4C(=O)C4CC4)C(=O)N5)ncnc3n2C)cn1 ... 1.4

###

- PROCEDURE TEXT: Half life in Beagle dog at 0.5 mg/kg, iv or 1 mg/kg, po
- Type: ADME, organism-based, Canis lupus familiaris
- COND: in vivo
ENDPOINT LABEL: log10 half-life (log10 of the value in h)

CCn1c(-c2cnc(C)nc2)nc2c(-c3ccc4c(c3)[C@](C)(N[C@H]3CCOC3)C(=O)N4)ncnc21 ... 0.20
CCn1c(-c2cnc(C)nc2)nc2c(-c3ccc4c(c3)[C@](C)(N3CC(C)(OC)C3)C(=O)N4)ncnc21 ... 0.26
Cc1ncc(-c2nc3c(-c4ccc5c(c4)[C@@]4(CCCN4C(=O)C4CC4)C(=O)N5C)ncnc3n2C)cn1 ... 0.30
CCn1c(-c2cnc(C)nc2)nc2c(-c3ccc4c(c3)[C@@]3(CCCN3C(=O)C3CC3)C(=O)N4C)ncnc21 ... 0.48
CCn1c(-c2cnc(C)nc2)nc2c(-c3cnc4c(c3)[C@](C)(NCC(C)(C)F)C(=O)N4)ncnc21 ... 0.97
CCn1c(-c2cnc(C)nc2)nc2c(-c3ccc4c(c3)[C@@]3(CCCN3C(=O)C3CC3)C(=O)N4)ncnc21 ... -0.30
CCn1c(-c2cnc(C)nc2)nc2c(-c3ccc4c(c3)[C@](C)(CC3CCO3)C(=O)N4)ncnc21 (some centres undefined) ... 0.00
CCn1c(-c2cnc(C)nc2)nc2c(-c3cnc4c(c3)[C@](C)(N3CC(C)(OC)C3)C(=O)N4)ncnc21 ... 0.30
Cc1ncc(-c2nc3c(-c4ccc5c(c4)[C@@]4(CCCN4C(=O)C4CC4)C(=O)N5)ncnc3n2C)cn1 ... 0.11
CCn1c(-c2cnc(C)nc2)nc2c(-c3cnc4c(c3)[C@](C)(N[C@H]3CCOC3)C(=O)N4)ncnc21 ... 0.53
CCn1c(-c2cnc(C)nc2)nc2c(-c3ccc4c(c3)[C@](C)(NCC(C)(F)F)C(=O)N4)ncnc21 ... 0.04
CCn1c(-c2cnc(C)nc2)nc2c(-c3ccc4c(c3)[C@@]3(CCCN3C(C)C)C(=O)N4)ncnc21 ... 0.00
CCn1c(-c2cnc(C)nc2)nc2c(-c3ccc4c(c3)[C@](C)(NCC(C)(C)F)C(=O)N4)ncnc21 ... 0.15
Cc1ncc(-c2nc3c(-c4cnc5c(c4)[C@](C)(N[C@H]4CCOC4)C(=O)N5)ncnc3n2C)cn1 ... 0.30
